System: Ovarian 2393A tumor initiating cells
protocol details: Tumor-initiating cell growth inhibition, Alamar Blue assay, ovarian TICs
Format: cell-based
measurement setup: 144 h; Ovarian 2393A TICs, 6 days; read-out: Tumor Initiating Cell GI50 Range Ovarian 2393A
GI50 for assorted compounds

Here are 2 compounds together with their reported answers.
INSERT INTO results (compound, data_value) VALUES
  ('Cc1cc(-c2cnn3c(NCC4CCOCC4)nc(Nc4ccccc4)nc23)ccc1C(=O)NC1CC1 [Example C10]', '> 500 nM'),
  ('COc1ccc(Oc2nc(NCC3CCOCC3)n3ncc(-c4ccc(C(=O)NC5CC5)c(C)c4)c3n2)c(F)c1 [Example C25]', '100 to 500 nM');

If you can, please state the reported GI50 value of Cc1cc(-c2cnn3c(NCC4CCOCC4)cc(N[C@H]4CCCC[C@H]4O)nc23)ccc1C(=O)NC1CC1 [Example C39] . ≤ 100 nM

Request: O=C(NC1CC1)c1ccc(-c2cnn3c(NCC4CCOCC4)nc(Oc4ccccc4)nc23)cc1F [Example C7] 100 to 500 nM
